For each entry below, report its EC50 value.
# System: Coxsackievirus B2
# Method: Antiviral activity against Human coxsackievirus B2 infected in African green monkey Vero 76 cells assessed as reduction in plaque number treated after viral infection measured after 3 days by plaque reduction assay
# Format: functional, organism-based
# Condition description: Enterovirus B, 72 h

In: Look up EC50 with Coxsackievirus B2 for this compound: "Brc1cccc(-c2nnc3nnc4c5ccccc5[nH]c4n23)c1"
Out: > 100 µM

In: Look up EC50 with Coxsackievirus B2 for this compound: "Oc1cccc(-c2nnc3nnc4c5ccccc5[nH]c4n23)c1"
Out: > 100 µM

In: Look up EC50 with Coxsackievirus B2 for this compound: "COc1cccc(-c2nnc3nnc4c5ccccc5[nH]c4n23)c1"
Out: > 65 µM

In: Look up EC50 with Coxsackievirus B2 for this compound: "Clc1ccc(-c2nnc3nnc4c5ccccc5[nH]c4n23)cc1"
Out: > 100 µM

In: Look up EC50 with Coxsackievirus B2 for this compound: "Oc1ccc(-c2nnc3nnc4c5ccccc5[nH]c4n23)cc1"
Out: > 100 µM

In: Look up EC50 with Coxsackievirus B2 for this compound: "COc1cc(-c2nnc3nnc4c5ccccc5[nH]c4n23)ccc1O"
Out: > 80 µM

In: Look up EC50 with Coxsackievirus B2 for this compound: "COc1ccc(-c2nnc3nnc4c5ccccc5[nH]c4n23)cc1"
Out: > 100 µM

In: Look up EC50 with Coxsackievirus B2 for this compound: "COc1ccccc1-c1nnc2nnc3c4ccccc4[nH]c3n12"
Out: > 20 µM

In: Look up EC50 with Coxsackievirus B2 for this compound: "Clc1ccccc1-c1nnc2nnc3c4ccccc4[nH]c3n12"
Out: > 100 µM

In: Look up EC50 with Coxsackievirus B2 for this compound: "Cc1ccc(-c2nnc3nnc4c5ccccc5[nH]c4n23)cc1"
Out: > 100 µM

In: Look up EC50 with Coxsackievirus B2 for this compound: "c1ccc(Oc2cccc(-c3nnc4nnc5c6ccccc6[nH]c5n34)c2)cc1"
Out: > 80 µM
